// provenance: patent US8673942B2

# reported melting point; entries follow

State, in one line, measured melting point of COCC(COC)Oc1cc(Oc2ccc(S(C)(=O)=O)nc2)cc2cc(C3=NCC(CC(N)=O)S3)[nH]c12 (stereo not drawn) [Example 35]
172 to 173 °C

For the compound COCCOc1c(F)c(Oc2ccc(S(C)(=O)=O)nc2)cc2cc(C3=NCC(CC(N)=O)S3)[nH]c12 (stereo not drawn) [Example 93] , give its measured melting point value.
143 to 144 °C

State its melting point: CS(=O)(=O)c1ccc(Oc2cc(OCc3cccc(Cl)n3)c3[nH]c(C4=NCC(CC(N)=O)S4)cc3c2)cc1 (stereo not drawn) [Example 8]
147 to 148 °C

Answer with reported melting point of COCCOc1c(F)c(Oc2ccc(S(C)(=O)=O)nc2)cc2cc(C3=NCC(CCO)S3)[nH]c12 (stereo not drawn) [Example 90]
160 to 161 °C

Annotate the compound COc1cc(Oc2ccc(S(C)(=O)=O)nc2)cc2cc(C3=NCC(CC(=O)N(C)C)S3)[nH]c12 (stereo not drawn) [Example 79] with its measured melting point.
206 to 207 °C

Retrieve melting point measured for CNC(=O)CC1CN=C(c2cc3cc(Oc4ccc(S(C)(=O)=O)cc4)cc(OC)c3[nH]2)S1 (stereo not drawn) [Example 103] and print it.
125 to 126 °C

Supply melting point value. Item: CC(C)Oc1cc(Oc2ccc(S(C)(=O)=O)cn2)cc2cc(C3=NCC(CC(N)=O)S3)[nH]c12 (stereo not drawn) [Example 67]
212 to 213 °C

Look up and state reported melting point for CNC(=O)CC1CN=C(c2cc3cc(Oc4ccc(S(C)(=O)=O)nc4)cc(OC)c3[nH]2)S1 (stereo not drawn) [Example 30]
201 to 202 °C

Give the value of melting point reported for the following: CS(=O)(=O)c1ccc(Oc2cc(OCc3ccccc3)c3[nH]c(C4=NCC(CCO)S4)cc3c2)cc1 (stereo not drawn) [Example 2]
97 to 98 °C

Input CCOc1cc(Oc2ccc(S(C)(=O)=O)nc2)cc2cc(C3=NCC(CCO)S3)[nH]c12 (stereo not drawn) [Example 95] , output reported melting point.
147 to 148 °C

Hello, please tell me recorded melting point for this one: CS(=O)(=O)c1ccc(Oc2cc(OCc3cccc(Cl)n3)c3[nH]c(C4=NCC(CC(=O)O)S4)cc3c2)cc1 (stereo not drawn) [Example 7]
175 to 176 °C

Identify melting point associated with the compound CNC(=O)CC1CN=C(c2cc3cc(Oc4ccc(S(C)(=O)=O)nc4)cc(OC(COC)COC)c3[nH]2)S1 (stereo not drawn) [Example 36]
149 to 151 °C

Quickly give me recorded melting point for CNC(=O)CC1CN=C(c2cc3cc(Oc4ccc(S(C)(=O)=O)cn4)cc(OC(C)C)c3[nH]2)S1 (stereo not drawn) [Example 68]
190 to 192 °C

Note melting point for the compound shown: CCOc1cc(Oc2ccc(S(C)(=O)=O)nc2)cc2cc(C3=NCC(CC(=O)NC)S3)[nH]c12 (stereo not drawn) [Example 97]
233 to 235 °C

Entry COCc1ccc(Oc2cc(OC)c3[nH]c(C4=NCC(CC(N)=O)S4)cc3c2)cn1 (stereo not drawn) [Example 49] needs its melting point filled in; supply it.
135 to 136 °C

Specify measured melting point for COc1cc(Oc2ccc(S(C)(=O)=O)nc2)cc2cc(C3=NCC(CC(=O)NC[C@@H](C)O)S3)[nH]c12 (stereo partly drawn) [Example 81] .
185 to 186 °C

Give the reported value of melting point for this record: COCC(C)Oc1cc(Oc2ccc(S(C)(=O)=O)cc2)cc2cc(C3=NCC(CC(C)(C)O)S3)[nH]c12 (stereo not drawn) [Example 60]
112 to 113 °C

For the compound CS(=O)(=O)c1ccc(Oc2cc(OCC3CCOCC3)c3[nH]c(C4=NCC(CCO)S4)cc3c2)cc1 (stereo not drawn) [Example 19] , give its reported melting point.
104 to 105 °C

Output melting point of COc1cc(Oc2ccc(S(C)(=O)=O)nc2)cc2cc(C3=NCC(CC(=O)NCC(C)(C)O)S3)[nH]c12 (stereo not drawn) [Example 73]
200 to 201 °C
